Provenance of the data: paper PMC4774911

# target_entity: ERN1 (Homo sapiens)
# Sequence (O75460 whole entry): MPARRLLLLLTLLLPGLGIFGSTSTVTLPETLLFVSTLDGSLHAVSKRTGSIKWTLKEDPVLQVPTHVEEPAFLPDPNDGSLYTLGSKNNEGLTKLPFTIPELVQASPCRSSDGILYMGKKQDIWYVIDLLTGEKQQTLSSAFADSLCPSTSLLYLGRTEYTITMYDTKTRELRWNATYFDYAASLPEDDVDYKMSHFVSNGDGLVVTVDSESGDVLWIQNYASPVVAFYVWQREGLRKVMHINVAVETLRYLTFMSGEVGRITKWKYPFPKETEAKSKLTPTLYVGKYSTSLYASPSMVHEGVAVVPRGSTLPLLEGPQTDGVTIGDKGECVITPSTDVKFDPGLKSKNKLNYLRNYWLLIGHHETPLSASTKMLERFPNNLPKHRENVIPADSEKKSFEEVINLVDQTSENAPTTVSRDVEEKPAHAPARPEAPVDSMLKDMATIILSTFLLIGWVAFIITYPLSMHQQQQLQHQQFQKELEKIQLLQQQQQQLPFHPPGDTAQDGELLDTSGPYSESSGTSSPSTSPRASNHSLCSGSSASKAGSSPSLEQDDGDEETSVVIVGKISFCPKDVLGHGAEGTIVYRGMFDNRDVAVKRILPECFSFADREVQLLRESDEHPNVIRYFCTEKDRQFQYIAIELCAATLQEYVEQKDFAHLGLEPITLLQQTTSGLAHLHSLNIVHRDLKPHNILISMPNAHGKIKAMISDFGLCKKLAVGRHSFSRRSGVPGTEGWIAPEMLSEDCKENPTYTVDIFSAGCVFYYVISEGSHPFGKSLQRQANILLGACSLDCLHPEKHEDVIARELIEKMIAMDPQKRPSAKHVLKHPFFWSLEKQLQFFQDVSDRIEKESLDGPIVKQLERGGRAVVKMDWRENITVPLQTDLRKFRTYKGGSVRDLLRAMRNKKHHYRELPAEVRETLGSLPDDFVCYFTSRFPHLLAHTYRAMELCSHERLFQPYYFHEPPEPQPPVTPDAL
quantity: IC50 (nM)
Kindly answer with a numeric value in nM, unit omitted.

Lab note: need IC50 for CN1CCN(c2ccc(Nc3ncc(C#N)c(Nc4ccccc4C(N)=O)n3)cc2)CC1.Cl [TCMDC-134116] on ERN1 (Homo sapiens), anyone have it?
170

###

# target_entity: UniProt:Q15131
# Sequence (Q15131 whole entry): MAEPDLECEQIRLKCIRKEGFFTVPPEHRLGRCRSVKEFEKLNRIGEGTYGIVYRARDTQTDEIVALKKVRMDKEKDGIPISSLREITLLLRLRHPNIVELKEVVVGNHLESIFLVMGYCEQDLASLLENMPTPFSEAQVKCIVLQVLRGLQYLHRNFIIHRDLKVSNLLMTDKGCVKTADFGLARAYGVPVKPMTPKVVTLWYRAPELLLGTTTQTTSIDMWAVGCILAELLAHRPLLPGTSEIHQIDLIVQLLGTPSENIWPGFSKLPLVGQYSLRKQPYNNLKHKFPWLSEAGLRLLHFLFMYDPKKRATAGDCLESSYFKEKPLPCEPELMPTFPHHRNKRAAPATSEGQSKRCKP
# procedure_summary: biochemical
# particulars: read-out: KDapp
quantity: pKd
Scale note: pKd = -log10(concentration in M).

Lab note: need pKd for CN(C)CC(O)COc1ccc(Nc2ncc([N+](=O)[O-])c(Nc3ccccc3O)n2)cc1.O=C(O)C(F)(F)F (stereo not shown) [TCMDC-141399] on UniProt:Q15131, anyone have it?
6.20
